- System: Yap1 mRNA
- assayDetails: Antisense inhibition of human Yap1 in A-431 cells by cEt gapmers, single dose (Example 2, RTS4814)
- Type: cell-based
- conditionLabel: Table 32; Yap1 mRNA, percent of untreated control; 3-10-3 cEt gapmers targeting SEQ ID NO.: 1, and 2
Strand notation (5' to 3'): a small letter for the sugar, then the base; units joined by * are phosphorothioate-linked, units joined directly phosphodiester-linked; [ ] holds rarer units or linkages, { } end groups; capitals alone tell only the bases. k = constrained ethyl (cEt); [5mC] = 5-methylcytosine; d = 2'-deoxy (DNA)
measurementType: YAP1 (% UTC)
Record the result as number plus unit.

Would you please look over these solved cases?
substance	YAP1 (% UTC)
1074258 (antisense kA*kT*kA*dT*dT*d[5mC]*dT*dG*d[5mC]*dT*dG*d[5mC]*dA*k[5mC]*kT*kG) [compound 1074258]	36 % UTC
1076018 (kA*k[5mC]*kT*dA*dA*dT*dA*dG*dG*dA*dT*dG*dG*kA*kT*kT; antisense) [compound 1076018]	15 % UTC
1075346 (antisense kG*kT*kA*dA*dG*dT*dA*dA*dA*dA*d[5mC]*dT*dG*k[5mC]*kT*kG) [compound 1075346]	16 % UTC
1074834 (kT*kT*kG*d[5mC]*dG*dA*dG*dG*dA*dT*dA*dA*dA*kA*kT*k[5mC]; antisense) [compound 1074834]	14 % UTC
1075410 (antisense kG*kA*kT*dT*dA*dA*d[5mC]*dA*dG*d[5mC]*d[5mC]*d[5mC]*dT*kT*kT*kA) [compound 1075410]	36 % UTC
1075442 (antisense kT*kA*kT*dT*dA*dG*dT*dT*d[5mC]*dT*dA*d[5mC]*dG*kA*kT*kT) [compound 1075442]	71 % UTC

Name the recorded YAP1 (% UTC) for 1075474 (kT*kT*kT*dA*dA*dT*dA*dG*dG*d[5mC]*dT*d[5mC]*dT*kA*kT*k[5mC]; antisense) [compound 1075474] .
68 % UTC

Here is the next substance: 1074194 (antisense k[5mC]*k[5mC]*kG*dG*dG*dT*d[5mC]*d[5mC]*dG*dG*dA*d[5mC]*dG*kG*k[5mC]*kG) [compound 1074194]
57 % UTC

* * *

- Test system: Yap1 mRNA
- assayDetails: Dose-dependent inhibition of human Yap1 in SNU-449 cells (Example 9, RTS36584)
- Type: cell-based
- conditionLabel: 2000.00 nM, free uptake, approximately 48 hours
- Experimental: Modified oligonucleotides described in the studies above were tested at various doses in SNU-449 cells. […] After approximately 48 hours, Yap1 mRNA levels were measured as previously described using the Human Yap1 primer-probe set RTS36584. Yap1 mRNA levels were normalized to total RNA content, as measured by RIBOGREEN®. […] IC50s were calculated using a linear regression on a log/linear plot of the data in excel.
Strand notation (5' to 3'): a small letter for the sugar, then the base; units joined by * are phosphorothioate-linked, units joined directly phosphodiester-linked; [ ] holds rarer units or linkages, { } end groups; capitals alone tell only the bases. e = 2'-O-(2-methoxyethyl) (MOE); k = constrained ethyl (cEt); [5mC] = 5-methylcytosine; d = 2'-deoxy (DNA)
measurementType: % UTC (Yap1 mRNA) (% UTC)
Provide the reading as a plain figure in % UTC.

Would you please look over these solved cases?
substance	% UTC (Yap1 mRNA) / % UTC
1198524 (kT*kG*dT*dA*dT*dG*dT*d[5mC]*dA*dG*dA*eA*kG*eA*kG*eT; antisense) [compound 1198524]	3
1198696 (kT*kG*dT*dA*dT*dG*dT*d[5mC]*dA*dG*dA*dA*kG*eA*kG*eT) [compound 1198696]	2

Name the recorded % UTC (Yap1 mRNA) for 1198719 (kG*eG*kA*dA*dA*dT*dT*dG*dT*d[5mC]*dT*d[5mC]*eA*eT*kG*k[5mC]; antisense) [compound 1198719] .
3

* * *

Catalogue of % UTC (Yap1 mRNA) values
- System: Yap1 mRNA
- assayDetails: Dose-dependent inhibition of human Yap1 in SNU-449 cells (Example 9, RTS36584)
- Type: cell-based
- conditionLabel: 2000.00 nM, free uptake, approximately 48 hours
Strand notation (5' to 3'): a small letter for the sugar, then the base; units joined by * are phosphorothioate-linked, units joined directly phosphodiester-linked; [ ] holds rarer units or linkages, { } end groups; capitals alone tell only the bases. e = 2'-O-(2-methoxyethyl) (MOE); k = constrained ethyl (cEt); [5mC] = 5-methylcytosine; d = 2'-deoxy (DNA)
Provide the reading as a plain figure in % UTC.

Would you please look over these solved cases?
substance	% UTC (Yap1 mRNA) / % UTC
1198804 (kT*kG*dT*d[5mC]*dT*d[5mC]*dA*dT*dG*d[5mC]*d[5mC]*kT*eT*kA*eT*kA; antisense) [compound 1198804]	5
1198424 (k[5mC]*dT*d[5mC]*dT*dT*dA*dT*dA*dT*dG*dG*kT*eT*kT*eT*kG; antisense) [compound 1198424]	9

// next item, % UTC (Yap1 mRNA) requested
Name the recorded % UTC (Yap1 mRNA) for 1198289 (kG*kG*kA*dA*dA*dT*dT*dG*dT*d[5mC]*dT*d[5mC]*kA*eT*kG*e[5mC]; antisense) [compound 1198289] .
9

* * *

- System: Yap1 mRNA
- assayDetails: Dose-dependent inhibition of human Yap1 in A-431 cells (Example 8, 10,000 cells per well, RTS4814)
- Format: cell-based
- conditionLabel: 500.0 nM; A-431 cells
Strand notation (5' to 3'): a small letter for the sugar, then the base; units joined by * are phosphorothioate-linked, units joined directly phosphodiester-linked; [ ] holds rarer units or linkages, { } end groups; capitals alone tell only the bases. k = constrained ethyl (cEt); [5mC] = 5-methylcytosine; d = 2'-deoxy (DNA)
Catalogue of % UTC (Yap1 mRNA) values
Provide the reading as a plain figure in % UTC.

substance	% UTC (Yap1 mRNA) / % UTC
1076023 (kA*kT*kA*dA*dT*dT*dA*dG*dA*dT*dG*d[5mC]*dT*kG*kA*k[5mC]; antisense) [compound 1076023]	5
1074486 (kA*kT*kT*d[5mC]*dA*d[5mC]*dT*dA*dA*dT*dA*dT*dG*kG*kT*k[5mC]; antisense) [compound 1074486]	10

Name the recorded % UTC (Yap1 mRNA) for 1074580 (DNA kA*k[5mC]*k[5mC]*dA*d[5mC]*dT*dA*dT*dA*dA*dA*dG*d[5mC]*kT*kT*kA; further chemistry not given here) [compound 1074580] .
8

* * *

- System: Yap1 mRNA
- assayDetails: Antisense inhibition of human Yap1 in A-431 cells by cEt gapmers, single dose (Example 3, RTS36584)
- Assay type: cell-based
- conditionLabel: Table 29; Yap1 mRNA as percent of untreated control; 3-10-3 cEt gapmers targeting SEQ ID NO.: 1, and 2
Strand notation (5' to 3'): a small letter for the sugar, then the base; units joined by * are phosphorothioate-linked, units joined directly phosphodiester-linked; [ ] holds rarer units or linkages, { } end groups; capitals alone tell only the bases. k = constrained ethyl (cEt); [5mC] = 5-methylcytosine; d = 2'-deoxy (DNA)
Outcome: true (1) for YAP1 (% UTC) of at least 10 % UTC; false (0) for anything lower.

substance	assignedLabel
1074799 (kT*kG*k[5mC]*dT*dT*dT*dG*dG*dA*dA*dG*dA*dT*k[5mC]*kT*kG) [compound 1074799]	false (0)
1074767 (kT*kT*kA*dT*d[5mC]*d[5mC]*d[5mC]*dA*dA*dT*dG*d[5mC]*dT*kA*k[5mC]*k[5mC]; antisense) [compound 1074767]	true (1)
1076495 (kG*kA*kT*dT*dA*dG*dT*dG*dA*dA*dA*dA*dT*kT*k[5mC]*k[5mC]; antisense) [compound 1076495]	true (1)
1076527 (kG*k[5mC]*kA*d[5mC]*dA*dA*d[5mC]*d[5mC]*dT*dT*dA*d[5mC]*dA*kT*kT*kT; antisense) [compound 1076527]	false (0)

Here's the next entry for you.
hey, is YAP1 (% UTC) for this one >= 10 % UTC? 1076335 (antisense k[5mC]*kA*k[5mC]*d[5mC]*dT*dA*dT*dA*dA*dG*dG*dA*dA*kT*kG*kG) [compound 1076335]
true (1)

* * *

- Test system: Yap1 mRNA
- assayDetails: Antisense inhibition of human Yap1 in SNU-449 cells by modified oligonucleotides, single dose (Example 5, RTS36584)
- Type: cell-based
- conditionLabel: Table 49; Yap1 mRNA level relative to untreated control; modified oligonucleotides targeting SEQ ID NO.: 1 and 2
Strand notation (5' to 3'): a small letter for the sugar, then the base; units joined by * are phosphorothioate-linked, units joined directly phosphodiester-linked; [ ] holds rarer units or linkages, { } end groups; capitals alone tell only the bases. e = 2'-O-(2-methoxyethyl) (MOE); k = constrained ethyl (cEt); [5mC] = 5-methylcytosine; d = 2'-deoxy (DNA)
Catalogue of YAP1 (% UT) values
Provide the reading as a plain figure in % UT.

Would you please look over these solved cases?
substance	unitLabel	YAP1 (% UT)
958499 (kA*kT*kT*dA*dG*dA*dG*dT*dA*dT*dG*dT*dG*kG*k[5mC]*kA) [Compound 958499]	% UT	13
1198340 (kA*kA*k[5mC]*dT*d[5mC]*dT*dT*dA*dT*dA*dT*dG*kG*eT*kT*eT; antisense) [Compound 1198340]	% UT	123
1095567 (antisense k[5mC]*kA*k[5mC]*dT*dG*dA*dG*dG*dT*dA*dT*dA*kA*e[5mC]*kT*eG) [Compound 1095567]	% UT	92
1198548 (antisense kT*kG*kG*dA*dA*dA*dT*dT*dG*dT*d[5mC]*dT*k[5mC]*kA*kT*eG) [Compound 1198548]	% UT	26
1198356 (kT*kA*kA*dA*dG*dT*dG*dT*dA*dT*dG*dT*k[5mC]*eA*kG*eA; antisense) [Compound 1198356]	% UT	5

Name the recorded YAP1 (% UT) for 1198583 (antisense kA*kG*kG*dA*dT*dG*d[5mC]*dA*dT*dG*dG*dT*kT*kT*kT*eT) [Compound 1198583] .
27

Here is the next substance: 1198568 (antisense kA*k[5mC]*kT*dT*dT*dT*dA*d[5mC]*dA*dT*dT*dA*kG*kG*kA*eA) [Compound 1198568]
31

Here is the next substance: 1198336 (k[5mC]*kT*kT*dA*dT*dA*dT*dG*dG*dT*dT*dT*kT*eG*kT*eG; antisense) [Compound 1198336]
31

Here is the next substance: 1198335 (kT*kT*kA*dT*dA*dT*dG*dG*dT*dT*dT*dT*kG*eT*kG*eT; antisense) [Compound 1198335]
26

Here is the next substance: 1198542 (antisense kT*kG*kT*d[5mC]*dT*d[5mC]*dA*dT*dG*d[5mC]*d[5mC]*dT*kT*kA*kT*eA) [Compound 1198542]
23

Here is the next substance: 1198303 (kG*kG*kT*dA*dT*dA*dA*d[5mC]*dT*dG*dG*dG*k[5mC]*eA*kA*eA; antisense) [Compound 1198303]
27

Here is the next substance: 1198580 (antisense kG*kT*kG*d[5mC]*dT*dT*dT*dG*dG*dA*dA*dG*kA*kT*k[5mC]*eT) [Compound 1198580]
43

Here is the next substance: 1198578 (antisense GCTTTGGAAGATCTGA; chemistry not fully specified) [Compound 1198578]
18

Recorded values, source patent US11214803B2.
